Each record here notes measured EC50.
- Assayed system: T1, recombinant human ErbB2 extracellular domain (ErbB2-ECD) (human, UniProt P04626 23-652)
- T1 construct: extracellular domain; Coated on plates or used biotin-labeled in solution (capture ELISA); also called Human ErbB2-ECD; rhErbB2
- Test method notes: capture ELISA, recombinant ErbB2-ECD
Experimental endpoint: EC50 (nM)

1) 5F12.v11 humanized antibody (antibody, V domains shown, VH.4/VL.v1, back mutations L69I/0) VH: EVQLVQSGAEVKKPGSSVKVSCKASGYTFTSYTMHWIRQAPGQGLEWIGYINPSSSYTNYNQNFKDRATITADKSTSTAYMELSSLRSEDTAVYYCARASSYSLDYWGQGTLVTVSS VL: DIQMTQSPSSLSASVGDRVTITCKASQDINKYIAWYQHKPGKGPKLLIHSTSTLYPGIPSRFSGSGSGKDYTFTISSLQPEDIATYYCLQYDNLLWTFGQGTKVEIK = 0.028
2) 5F12.v5 humanized antibody (antibody, V domains shown, VH.v1/VL.4, back mutations 0/I58V) VH: EVQLVQSGAEVKKPGSSVKVSCKASGYTFTSYTMHWIRQAPGQGLEWIGYINPSSSYTNYNQNFKDRATLTADKSTSTAYMELSSLRSEDTAVYYCARASSYSLDYWGQGTLVTVSS VL: DIQMTQSPSSLSASVGDRVTITCKASQDINKYIAWYQHKPGKGPKLLIHSTSTLYPGVPSRFSGSGSGKDYTFTISSLQPEDIATYYCLQYDNLLWTFGQGTKVEIK = 0.028
3) 5F12.v7 humanized antibody (antibody, V domains shown, VH.v1/VL.6, back mutations 0/Y71F) VH: EVQLVQSGAEVKKPGSSVKVSCKASGYTFTSYTMHWIRQAPGQGLEWIGYINPSSSYTNYNQNFKDRATLTADKSTSTAYMELSSLRSEDTAVYYCARASSYSLDYWGQGTLVTVSS VL: DIQMTQSPSSLSASVGDRVTITCKASQDINKYIAWYQHKPGKGPKLLIHSTSTLYPGIPSRFSGSGSGKDFTFTISSLQPEDIATYYCLQYDNLLWTFGQGTKVEIK = 0.152

Ref: patent US20200002434A1
